Where do these numbers come from? They come from patent US20260152527A1.

test.method.notes: In vivo topical administration pharmacokinetics of K173, rabbit (aqueous humor, cornea)
reported.conditions: aqueous humor, topical or ocular, 5 mg/ml, Group 1 (single dose), topical 5 mg/ml, 2 hr post-last dose, OS, Mean, read-out: K173 Concentrations (ng/mL) in Rabbit Aqueous Humor OS Sample, Mean
Method: Animals were not tranquilized for the examinations. The remaining ocular tissues were discarded. Ocular samples were stored −80° C. The rabbit efficacy model can be used to determine if QD or BID dosing is optimal for clinical utility.
Positions of bridges follow the written chain, without caps; N, C: chain ends. Non-standard residues stand in square brackets, D forms with d. Residues, ends and D or L forms follow the SMILES beside them. Triazole bridges read from a SMILES are 1,4-linked. *: point of attachment. Benzoyl(3,5-(OH)2) = O=C(c1cc(O)cc(O)c1)*; Lys(N3) = [N-]=[N+]=NCCCC[C@H](N)C(=O)O; dPhe(4-F) = N[C@H](Cc1ccc(F)cc1)C(=O)O; Nle = CCCC[C@H](N)C(=O)O; Pra = C#CC[C@H](N)C(=O)O
parameter.measured: level at 2 h (ng/mL)
API: value field is a number in ng/mL; no unit string.

Look at this molecule and give its reported level at 2 h. CCCC[C@H](NC(=O)c1cc(O)cc(O)c1)C(=O)N[C@H]1CCCCn2cc(nn2)C[C@@H](C(N)=O)NC(=O)[C@H](Cc2c[nH]c3ccccc23)NC(=O)[C@H](CCCNC(=N)N)NC(=O)[C@@H](Cc2ccc(F)cc2)NC(=O)[C@H](Cc2c[nH]cn2)NC1=O [KR-072] ({Benzoyl(3,5-(OH)2)}-[Nle][Lys(N3)]H[dPhe(4-F)]RW[Pra]-NH2; triazole 2-7) 1.89
